Test: tissue distribution, tissue-to-plasma ratio
Format: in vivo, BALB/c nude mice bearing SkBr3 xenograft
Conditions: BALB/c nude, mouse, heart; PO 10 mg/kg, 30 min post-dose; read-out: tissue-to-plasma ratio (KP value), heart
Description: Various tissue concentrations, such as the heart, lung, liver, kidney, spleen, brain, and tumor in BALB/c nude mice bearing SkBr3 xenograft are shown in Fig. 9B. […] The heart, lung, liver, kidney, brain, spleen, and tumor were collected at 30 min post-dose from 3 different animals at each time point, rinsed with ice-cold saline, weighed and stored at −80°C until analysis. For HS-133 quantification, mouse tissues were homogenized with three times the volume of PBS. […]
property.name: Kp at 0.5 h

compound: CC(=O)Nc1ccc(-c2nc3c(c(=O)n(C)c(=O)n3C)n2-c2cccc(F)c2)cc1
property.name: Kp at 0.5 h
observed.result: 3.26

---

Test: tissue distribution, tissue-to-plasma ratio
Assay type: in vivo, BALB/c nude mice bearing SkBr3 xenograft
Conditions: BALB/c nude, mouse, lung; PO 10 mg/kg, 30 min post-dose; read-out: tissue-to-plasma ratio (KP value), lung

compound: CC(=O)Nc1ccc(-c2nc3c(c(=O)n(C)c(=O)n3C)n2-c2cccc(F)c2)cc1
Kp at 0.5 h: 4.18

---

Assay: pharmacokinetic study in mouse
Type: in vivo
Conditions: plasma, iv, i.v. 5 mg/kg, ICR mice, read-out: T1/2, λ (converted)
property.name: half-life

compound: CC(=O)Nc1ccc(-c2nc3c(c(=O)n(C)c(=O)n3C)n2-c2cccc(F)c2)cc1 [HS-133]
observed.result: 6.4 h
